This collection of values is drawn from patent US20230172204A1.

test system: Phakopsora pachyrhizi (F129L); assay: Protective control of soybean rust on soybeans (PHAKPA P6); type: in vivo; conditions: protective P6, 4 ppm, soybean rust F129L
# % PHAKPA (F129L) Disease level P6 at 4 ppm listing for each entry below
recorded-metric: % PHAKPA (F129L) Disease level P6 at 4 ppm (%)

compound-smiles | units-text | numeric-readout
CNC(=O)/C(=N/OC)c1cccc(C)c1CO/N=C(\C)c1ccccc1C(C)C | % | 100
CNC(=O)/C(=N/OC)c1cccc(C)c1CO/N=C(\C)c1ccc(/C(C)=N\OC)cc1C(F)(F)F | % | 12
CNC(=O)/C(=N/OC)c1cccc(C)c1CO/N=C(\C)c1ccc(F)cc1C(F)(F)F | % | 22
CO/N=C(/C(=O)OC)c1cccc(C)c1CO/N=C(\C)c1cc(F)ccc1Br | % | 100

----------
# % PHAKPA (F129L) Disease level P6 at 4 ppm listing for each entry below
test system: Phakopsora pachyrhizi (F129L); test: Protective control of soybean rust on soybeans (PHAKPA P6); type: in vivo; conditions: protective P6, 4 ppm, soybean rust F129L
recorded-metric: % PHAKPA (F129L) Disease level P6 at 4 ppm

compound-smiles | result
CO/N=C(/C(=O)OC)c1cccc(C)c1CO/N=C(\CC1CC1)c1cccc(C(F)(F)F)c1 | 87%
C=Cc1cc(/C(C)=N/OCc2c(C)cccc2/C(=N\OC)C(=O)NC)cc(C(F)(F)F)c1 | 38%
CNC(=O)/C(=N/OC)c1cccc(C)c1CO/N=C(\C)c1ccccc1F | 26%
CNC(=O)/C(=N/OC)c1cccc(C)c1CO/N=C(\C)c1cccc(/C(C)=N/OC)c1 | 24%
CNC(=O)/C(=N/OC)c1cccc(C)c1CO/N=C(\C)c1cccc(C#CC(F)(F)F)c1 | 43%
CNC(=O)/C(=N/OC)c1cccc(C)c1CO/N=C(\C)c1ccc(OC(F)(F)F)cc1OC(F)(F)F | 97%
CO/N=C(/C(=O)OC)c1cccc(C)c1CO/N=C(\C)c1cc(Cl)cc(Cl)c1F | 30%
CNC(=O)/C(=N/OC)c1cccc(C)c1CO/N=C(\C)c1ccc(C#N)cc1 | 28%
CNC(=O)/C(=N/OC)c1cccc(C)c1CO/N=C(\C)c1cccc(N2CC(F)(F)C2)c1 | 77%
CNC(=O)/C(=N/OC)c1cccc(C)c1CO/N=C(\C)c1ccc(Cl)c(C(F)(F)F)c1 | 53%
CO/N=C(/C(=O)OC)c1cccc(C)c1CO/N=C(\C)c1ccc(OC(F)(F)F)cc1C | 93%
CNC(=O)/C(=N/OC)c1cccc(C)c1CO/N=C(\C)c1cccc(OC)c1 | 44%
CO/N=C(/C(=O)OC)c1cccc(C)c1CO/N=C(\C)c1ccccc1-c1ccccc1 | 98%
CNC(=O)/C(=N/OC)c1cccc(C)c1CO/N=C(\C)c1cc(F)ccc1Br | 30%
CO/N=C(/C(=O)OC)c1cccc(C)c1CO/N=C(/c1ccc(F)cc1)C(F)F | 97%
CNC(=O)/C(=N/OC)c1cccc(C)c1CO/N=C(\C)c1ccc(Oc2ccc(Cl)cc2)cc1C(F)(F)F | 50%
CO/N=C(/C(=O)OC)c1cccc(C)c1CO/N=C(\C)c1ccc(Br)cc1C(F)(F)F | 100%
CNC(=O)/C(=N/OC)c1cccc(C)c1CO/N=C(\C)c1cccc(F)c1F | 2%
CO/N=C(/C(=O)OC)c1cccc(C)c1CO/N=C(\C)c1cccc(Cl)c1 | 22%
CO/N=C(/C(=O)OC)c1cccc(C)c1CO/N=C(\C)c1c(F)cccc1Cl | 87%
CO/N=C(/C(=O)OC)c1cccc(C)c1CO/N=C(\C)c1cccc(OC(F)F)c1 | 30%
CNC(=O)/C(=N/OC)c1cccc(C)c1CO/N=C(\C)c1ccccc1OC1CC1 | 100%
CO/N=C(/C(=O)OC)c1cccc(C)c1CO/N=C(\C)c1ccc(F)cc1C(F)(F)F | 73%
CNC(=O)/C(=N/OC)c1cccc(C)c1CO/N=C(\C)c1c(F)cccc1OC(F)(F)F | 22%
CNC(=O)/C(=N/OC)c1cccc(C)c1CO/N=C(\C)c1c(F)cc(F)cc1F | 4%
CNC(=O)/C(=N/OC)c1cccc(C)c1CO/N=C(\C)c1c(F)cccc1Cl | 62%
CO/N=C(/C(=O)OC)c1cccc(C)c1CO/N=C(\C)c1cccc(C#N)c1 | 19%
CO/N=C(/C(=O)OC)c1cccc(C)c1CO/N=C(\C)c1ccc(Cl)c(C)c1 | 90%
C#Cc1ccccc1/C(C)=N/OCc1c(C)cccc1/C(=N\OC)C(=O)OC | 93%
CO/N=C(/C(=O)OC)c1cccc(C)c1CO/N=C(\C)c1cc(F)cc(F)c1 | 7%
CNC(=O)/C(=N/OC)c1cccc(C)c1CO/N=C(\C)c1cccc(C(F)(F)F)c1F | 13%
CO/N=C(/C(=O)OC)c1cccc(C)c1CO/N=C(\C)c1cccc(Br)c1 | 67%
C#Cc1cc(/C(C)=N/OCc2c(C)cccc2/C(=N\OC)C(=O)OC)cc(C(F)(F)F)c1 | 15%

----------
# % PHAKPA (F129L) Disease level P2 at 16 ppm listing for each entry below
test system: Phakopsora pachyrhizi (F129L); assay: Protective control of soybean rust on soybeans (PHAKPA P2); assay type: in vivo; conditions: protective P2, 16 ppm, soybean rust F129L
recorded-metric: % PHAKPA (F129L) Disease level P2 at 16 ppm (%)

compound-smiles | units-text | numeric-readout
CNC(=O)/C(=N/OC)c1cccc(C)c1CO/N=C(\C)c1c(Cl)ccc(Cl)c1OC(F)(F)F | % | 43
CNC(=O)/C(=N/OC)c1cccc(C)c1CO/N=C(\C)c1cc(C(F)(F)F)ccc1C | % | 3
CO/N=C(/C(=O)OC)c1cccc(C)c1CO/N=C(\C)c1cccc(C#N)c1 | % | 15
CNC(=O)/C(=N/OC)c1cccc(C)c1CO/N=C(\C)c1ccccc1C1(C)CC1 | % | 40
C#Cc1cc(/C(C)=N/OCc2c(C)cccc2/C(=N\OC)C(=O)NC)cc(C(F)(F)F)c1 | % | 2
CNC(=O)/C(=N/OC)c1cccc(C)c1CO/N=C(\C)c1ccc(Cl)c(F)c1CC(F)(F)F | % | 6
COC=C(C(=O)OC)c1cccc(C)c1CON=C(C)c1ccc(OC)cc1C(F)(F)F | % | 0
CNC(=O)/C(=N/OC)c1cccc(C)c1CO/N=C(\C)c1cc(C(F)(F)F)ccc1F | % | 0

----------
test system: Phakopsora pachyrhizi (F129L); assay: Protective control of soybean rust on soybeans (PHAKPA P6); format: in vivo; conditions: protective P6, 4 ppm, soybean rust F129L
# % PHAKPA (F129L) Disease level P6 at 4 ppm listing for each entry below
recorded-metric: % PHAKPA (F129L) Disease level P6 at 4 ppm (%)

compound-smiles | numeric-readout
CO/N=C(/C(=O)OC)c1cccc(C)c1CO/N=C(\C)c1ccc(C)c(C)c1 | 50
CO/N=C(/C(=O)OC)c1cccc(C)c1CO/N=C(\C)c1cc(F)c(F)cc1C(F)(F)F | 83
CNC(=O)/C(=N/OC)c1cccc(C)c1CO/N=C(\C)c1ccc(-c2ccccc2)cc1 | 41
CO/N=C(/C(=O)OC)c1cccc(C)c1CO/N=C(\C)c1cc(C#N)cc(C(F)(F)F)c1 | 100
COC=C(C(=O)OC)c1cccc(C)c1CON=C(C)c1ccc(OC)cc1C(F)(F)F | 8
CO/N=C(/C(=O)OC)c1cccc(C)c1CO/N=C(\CC(F)(F)F)c1cccc(C(F)(F)F)c1 | 90
CNC(=O)/C(=N/OC)c1cccc(C)c1CO/N=C(\C)c1cc(Cl)c(F)c(Cl)c1 | 33
CO/N=C(/C(=O)OC)c1cccc(C)c1CO/N=C(\C)c1cc(Cl)ccc1Cl | 88
CNC(=O)/C(=N/OC)c1cccc(C)c1CO/N=C(\C)c1cc(Br)cc(F)c1F | 33
CO/C=C(/C(=O)OC)c1cccc(C)c1CO/N=C(\C)c1ccc(C)cc1C(F)(F)F | 6
CNC(=O)/C(=N/OC)c1cccc(C)c1CO/N=C(\C)c1cccc(CC2COC2)c1 | 100
CO/N=C(/C(=O)OC)c1cccc(C)c1CO/N=C(\C)c1ccc(Cl)cc1 | 63
CO/N=C(/C(=O)OC)c1cccc(C)c1CO/N=C(\C)c1ccc(F)cc1Cl | 70
CO/N=C(/C)c1ccc(/C(C)=N/OCc2c(C)cccc2/C(=N\OC)C(=O)OC)c(OC(F)(F)F)c1 | 73
CNC(=O)/C(=N/OC)c1cccc(Br)c1CO/N=C(\C)c1ccccc1 | 4
CNC(=O)/C(=N/OC)c1cccc(C)c1CO/N=C(\C)c1ccccc1C | 93
CNC(=O)/C(=N/OC)c1cccc(C)c1CO/N=C(\C)c1ccc(Cl)c(Cl)c1 | 36

----------
test system: Phakopsora pachyrhizi (F129L); experiment: Protective control of soybean rust on soybeans (PHAKPA P6); assay type: in vivo; conditions: protective P6, 4 ppm, soybean rust F129L
recorded-metric: % PHAKPA (F129L) Disease level P6 at 4 ppm (%)

compound-smiles | numeric-readout
CO/N=C(/C(=O)OC)c1cccc(C)c1CO/N=C(\C)c1ccc(Br)cc1 | 52
CO/N=C(/C(=O)OC)c1cccc(C)c1CO/N=C(\C)c1cc(C(F)(F)F)cc(C(F)(F)F)c1 | 90
CNC(=O)/C(=N/OC)c1cccc(C)c1CO/N=C(\C)c1ccc(Cl)c(F)c1CC(F)(F)F | 40
CNC(=O)/C(=N/OC)c1cccc(C)c1CO/N=C(\C)c1cc(-c2ccccc2)cc(C(F)(F)F)c1 | 87
CO/N=C(/C(=O)OC)c1cccc(C)c1CO/N=C(\C)c1ccccc1Cl | 85
CNC(=O)/C(=N/OC)c1cccc(C)c1CO/N=C(\C)c1ccccc1CC(C)C | 100
CO/N=C(/C(=O)OC)c1cccc(C)c1CO/N=C(\C)c1ccc(C(F)(F)F)cc1 | 40
CNC(=O)/C(=N/OC)c1cccc(C2CC2)c1CO/N=C(\C)c1cccc(C(F)(F)F)c1 | 20
